# self-cleavage kobs at 160 uM GlcN6P per entry
B1: glmS ribozyme (parent)
chain: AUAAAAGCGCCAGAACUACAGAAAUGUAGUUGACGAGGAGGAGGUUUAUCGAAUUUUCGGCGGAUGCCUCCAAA

- Variants of: B1
- protocol-details: self-cleavage kobs at 160 uM GlcN6P; higher = faster cleavage; RNA array
- run-parameters: with glucosamine-6-phosphate
Variants at the floor of the assay were thinned out.

Below are worked cases with known answers.
U30C C50U U56C
< 1e-05 s⁻¹
G7C A64G
< 1e-05 s⁻¹

Incoming: Given G38U G44A , state its recorded self-cleavage kobs at 160 uM GlcN6P.
Outgoing: < 1e-05 s⁻¹

Incoming: Given G7U C11U G29U U30A , state its recorded self-cleavage kobs at 160 uM GlcN6P.
Outgoing: < 1e-05 s⁻¹

Incoming: Given G38U A42G , state its recorded self-cleavage kobs at 160 uM GlcN6P.
Outgoing: < 1e-05 s⁻¹

Incoming: Given G63U C67A , state its recorded self-cleavage kobs at 160 uM GlcN6P.
Outgoing: < 1e-05 s⁻¹

Incoming: Given C10G U46A U55C , state its recorded self-cleavage kobs at 160 uM GlcN6P.
Outgoing: < 1e-05 s⁻¹

Incoming: Given A14U C34A G60A C61A , state its recorded self-cleavage kobs at 160 uM GlcN6P.
Outgoing: < 1e-05 s⁻¹

Incoming: Given C8G C10A , state its recorded self-cleavage kobs at 160 uM GlcN6P.
Outgoing: < 1e-05 s⁻¹
